assay.target: UniProt:P08588
Sequence (P08588 whole entry): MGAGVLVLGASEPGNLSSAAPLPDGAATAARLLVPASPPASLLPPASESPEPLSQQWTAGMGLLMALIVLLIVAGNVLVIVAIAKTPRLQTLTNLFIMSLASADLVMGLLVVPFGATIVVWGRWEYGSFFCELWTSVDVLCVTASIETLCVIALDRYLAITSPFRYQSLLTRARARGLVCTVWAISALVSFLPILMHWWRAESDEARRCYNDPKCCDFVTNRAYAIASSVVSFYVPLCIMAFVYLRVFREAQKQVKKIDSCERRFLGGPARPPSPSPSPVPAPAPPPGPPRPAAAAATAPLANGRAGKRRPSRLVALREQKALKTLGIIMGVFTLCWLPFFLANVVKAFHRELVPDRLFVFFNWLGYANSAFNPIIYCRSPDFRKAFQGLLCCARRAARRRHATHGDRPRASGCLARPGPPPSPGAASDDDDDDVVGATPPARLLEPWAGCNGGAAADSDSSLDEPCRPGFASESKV
protocol.text: Agonist activity at human beta1 adrenergic receptor expressed in cells by cAMP accumulation assay
measured.metric: EC50 (nM)

{"mol.smiles": "NCCCCOc1ccc(Nc2ccc(CCNC[C@H](O)c3ccc(O)c4[nH]c(=O)ccc34)cc2)cc1", "unit.spec": "nM", "meas.value": 7.94}
{"mol.smiles": "CC(C)(N)COc1ccc(Nc2ccc(CCNC[C@H](O)c3ccc(O)c4[nH]c(=O)ccc34)cc2)cc1", "unit.spec": "nM", "meas.value": 6.31}
{"mol.smiles": "CS(=O)(=O)N1CCN(CCOc2ccc(Nc3ccc(CCNC[C@H](O)c4ccc(O)c5[nH]c(=O)ccc45)cc3)cc2)CC1", "unit.spec": "nM", "meas.value": 7.94}
{"mol.smiles": "NCCCOc1ccc(Nc2ccc(CCNC[C@H](O)c3ccc(O)c4[nH]c(=O)ccc34)cc2)cc1", "unit.spec": "nM", "meas.value": 7.94}
{"mol.smiles": "O=C(NCCOc1ccc(Nc2ccc(CCNC[C@H](O)c3ccc(O)c4[nH]c(=O)ccc34)cc2)cc1)c1ccccc1", "unit.spec": "nM", "meas.value": 2}
{"mol.smiles": "CC(C)(N)COc1ccc(Nc2ccc(CCNC[C@H](O)c3ccc(O)c(NC=O)c3)cc2)cc1", "unit.spec": "nM", "meas.value": 6.31}
{"mol.smiles": "COc1ccc(Nc2ccc(CCNC[C@H](O)c3ccc(O)c4[nH]c(=O)ccc34)cc2)cc1-c1ccc(CN)cc1", "unit.spec": "nM", "meas.value": 2.51}
{"mol.smiles": "NCCOCCOc1ccc(Nc2ccc(CCNC[C@H](O)c3ccc(O)c4[nH]c(=O)ccc34)cc2)cc1", "unit.spec": "nM", "meas.value": 7.94}
{"mol.smiles": "NCCOc1ccc(Nc2ccc(CCNC[C@H](O)c3ccc(O)c4[nH]c(=O)ccc34)cc2)cc1", "unit.spec": "nM", "meas.value": 7.94}
{"mol.smiles": "COc1ccc(Nc2ccc(CCNC[C@H](O)c3ccc(O)c4[nH]c(=O)ccc34)cc2)cc1-c1ccccc1CN", "unit.spec": "nM", "meas.value": 2.51}
{"mol.smiles": "O=c1ccc2c([C@@H](O)CNCCc3ccc(Nc4ccc(OCCN5CCNCC5)cc4)cc3)ccc(O)c2[nH]1", "unit.spec": "nM", "meas.value": 10}
{"mol.smiles": "CC(C)(C)OC(=O)NCCOc1ccc(Nc2ccc(CCNC[C@H](O)c3ccc(O)c4[nH]c(=O)ccc34)cc2)cc1", "unit.spec": "nM", "meas.value": 12.6}
{"mol.smiles": "CC(C)(N)COc1ccc(Nc2ccc(CCNC[C@H](O)c3ccc(O)c4[nH]c(=O)ccc34)cc2)cc1-c1ccccc1", "unit.spec": "nM", "meas.value": 1.58}
{"mol.smiles": "O=c1ccc2c([C@@H](O)CNCCc3ccc(Nc4ccc(OCCN5CCOCC5)cc4)cc3)ccc(O)c2[nH]1", "unit.spec": "nM", "meas.value": 12.6}
{"mol.smiles": "COc1ccc(Nc2ccc(CCNC[C@H](O)c3ccc(O)c4[nH]c(=O)ccc34)cc2)cc1-c1cccc(CN)c1", "unit.spec": "nM", "meas.value": 3.98}
